This section presents molecules with their documented log reduction at 100 µM values.
- System: HCV replicon
- run description: HCV replicon assay: HCV RNA by Q-RT-PCR, 4 days exposure
- Assay type: cell-based, hepatitis C virus (HCV)
- protocol conditions: Hepatitis C virus, 96 h, read-out: Corrected HCV RNA log10 reduction at 100 μM
metric name: log reduction at 100 µM

>>> df
                                   molecule  quantitative_result
0  CN(Cc1cnc2nc(N)nc(N)c2n1)c1ccc(C(=O)N[C@@H](CCC(=O)O)C(=O)O)cc1 [Methotrexate]                 0.11
1                    NC(=O)NO [Hydroxyurea]                -0.08
2  NC(=O)c1ncn([C@@H]2O[C@H](CO)[C@@H](O)[C@H]2O)c1O                 0.08
3  NC(=O)c1[nH]nc([C@@H]2O[C@H](CO)[C@@H](O)[C@H]2O)c1O                 1.46
4  COc1c(C)c2c(c(O)c1C/C=C(\C)CCC(=O)O)C(=O)OC2                 0.07
5  O=c1[nH]c(=O)n([C@H]2C[C@H](O)[C@@H](CO)O2)cc1F                 0.04
6  O=C(O)C[C@H](NC(=O)CP(=O)(O)O)C(=O)O [PALA, N-(Phosphonoacetyl)-L-aspartate]                  1.3
7                            Nc1n[nH]c(N)n1                 0.32
8  NC(=O)c1csc([C@@H]2O[C@H](CO)[C@@H](O)[C@H]2O)n1                -0.13

---

- System: HCV replicon
- run description: HCV replicon assay: HCV RNA by Q-RT-PCR, 4 days exposure
- Format: cell-based, hepatitis C virus (HCV)
- protocol conditions: 96 h incubation; read-out: Corrected HCV RNA EC90
This section presents compounds with their documented EC90 values.
metric name: EC90

>>> df
                                   compound   target_desc  metric_name    result
0  O=c1cnn([C@@H]2O[C@H](CO)[C@@H](O)[C@H]2O)c(=S)[nH]1  HCV replicon         EC90  > 100 µM
1      O=C1C(O)=C(CC=C(Cl)Cl)C(=O)c2ccccc21  HCV replicon         EC90  > 100 µM
2  Nc1ccn([C@@H]2C=C(CO)[C@@H](O)[C@H]2O)c(=O)n1  HCV replicon         EC90    2.5 µM
3  Nc1ccn(C2OC(CO)C(O)C2=CF)c(=O)n1 (centres unmarked)  HCV replicon         EC90  > 100 µM
4  COc1c(C)c2c(c(O)c1CCOP(=O)(O)CP(=O)(O)OC[C@H]1O[C@@H](n3cnc4c(N)ncnc43)[C@H](O)[C@@H]1O)C(=O)OC2  HCV replicon         EC90  > 100 µM

---

- Tested on: HCV replicon
- run description: HCV replicon assay: HCV RNA by Q-RT-PCR, 4 days exposure
- Format: cell-based, hepatitis C virus (HCV)
- protocol conditions: Hepatitis C virus, 96 h; 100 μM; 4 days; HCV replicon transfected Huh-7 cells; read-out: log10 RNA reduction at 100 μM, HCV
Think of 0.8 as a floor: if log reduction at 100 µM stands on it or above, it is class 1; beneath it, class 0.

>>> print(df.to_string())
                                   compound  assigned_label
0  O=C(O)C[C@H](NC(=O)CP(=O)(O)O)C(=O)O [PALA, N-(Phosphonoacetyl)-L-aspartate]         class 1
1  CN(Cc1cnc2nc(N)nc(N)c2n1)c1ccc(C(=O)N[C@@H](CCC(=O)O)C(=O)O)cc1 [Methotrexate]         class 0
2  O=c1[nH]c(=O)n([C@H]2C[C@H](O)[C@@H](CO)O2)cc1F         class 0
3  Cc1c(-c2ccc(-c3ccccc3F)cc2)nc2ccc(F)cc2c1C(=O)O         class 0
4  Nc1ccn([C@@H]2C=C(CO)[C@@H](O)[C@H]2O)c(=O)n1         class 1
5  O=c1cnn([C@@H]2O[C@H](CO)[C@@H](O)[C@H]2O)c(=O)[nH]1         class 0
6  COc1c(C)c2c(c(O)c1C/C=C(\C)CCC(=O)O)C(=O)OC2         class 1
7  NC(=O)c1ncn([C@@H]2O[C@H](CO)[C@@H](O)[C@H]2O)c1O         class 0
